Molecular target: T1, TGFβ2 (transforming growth factor beta 2) (Homo sapiens, UniProt P61812 SEQ:1-112)
T1 sequence: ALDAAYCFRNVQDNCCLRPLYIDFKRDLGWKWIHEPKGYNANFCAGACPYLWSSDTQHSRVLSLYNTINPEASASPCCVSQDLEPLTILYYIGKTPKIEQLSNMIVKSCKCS
Experiment: filter; Table 18 footnote states ~1 nM; Ki ~10 nM
Conditions: chain copies: 2 (inferred, homodimer)
Assay endpoint: Kd

- GGAGGUUAUUACAGAGUCUGUAUAGCUGUACUCC (ssRNA, 2'-F C and U; 3'-3' dT cap) [NX22284]: ~2 nM
